- System: LO2 (human normal hepatocytes)
- experimental details: MTT antiproliferative assay, LO2 normal cells
- Type: cell-based
- stated conditions: Hepatocyte, 72 h
observation type: IC50 (µM)

>>> df
                                   compound                    assay_system  observation_type  recorded_measurement
0                O=CC=C(Cl)c1cc2ccccc2oc1=O  LO2 (human normal hepatocytes)              IC50                  40.3
1            O=CC=C(Cl)c1cc2ccc(Br)cc2oc1=O  LO2 (human normal hepatocytes)              IC50                    43
2  O=c1[nH]cc(F)c(=O)[nH]1 [5-FU, 5-Fluorouracil, reference compound]  LO2 (human normal hepatocytes)              IC50                  10.7
3           Cc1ccc2oc(=O)c(C(Cl)=CC=O)cc2c1  LO2 (human normal hepatocytes)              IC50                    25
4     CCN(CC)c1ccc2cc(C(Cl)=CC=O)c(=O)oc2c1  LO2 (human normal hepatocytes)              IC50                  52.6

###

Recorded log10(IC50) values for a group of compounds are listed next.
- Tested on: KB (human oral epidermoid carcinoma cell line)
- experimental details: MTT antiproliferative assay, KB
- Format: cell-based
- stated conditions: Homo sapiens; MTT, 72 h
observation type: log10(IC50) (log10 of the value in µM)

In [3]: df
Out[3]:
                                   compound  recorded_measurement
0  CCN(CC)c1ccc2cc(C(Cl)=CC=O)c(=O)oc2c1 [Compound 5c]                  0.50
1  O=CC=C(Cl)c1cc2ccc(OCc3ccccc3)cc2oc1=O [Compound 6e]                 -0.41
2  O=c1[nH]cc(F)c(=O)[nH]1 [5-FU, 5-Fluorouracil, reference compound]                  0.76
3  CC(C)Oc1ccc2cc(C(Cl)=CC=O)c(=O)oc2c1 [Compound 6d]                  0.63
4  O=CC=C(Cl)c1cc2cc(O)ccc2oc1=O [Compound 5e]                  0.51
5  O=CC=C(Cl)c1cc2cc(Br)ccc2oc1=O [Compound 5g]                 -0.06
6  COc1ccc2cc(C(Cl)=CC=O)c(=O)oc2c1 [Compound 6a]                  0.53

###

- Test system: MCF-7 (human breast cancer cell line)
- experimental details: MTT antiproliferative assay, MCF-7
- Format: cell-based
- stated conditions: MCF7, 72 h
Class boundaries, taken from values of IC50, are as follows: low bracket (below 9 µM), middle bracket (9 µM to below 20 µM), high bracket (20 µM or more)

In [3]: df
Out[3]:
                                   compound           group
0    O=CC=C(Cl)c1cc2ccc(OCc3ccccc3)cc2oc1=O  middle bracket
1                O=CC=C(Cl)c1cc2ccccc2oc1=O     low bracket
2         CCOc1ccc2cc(C(Cl)=CC=O)c(=O)oc2c1    high bracket
3  O=CC=C(Cl)c1cc2ccc(OCc3ccc([N+](=O)[O-])cc3)cc2oc1=O    high bracket
4     CCN(CC)c1ccc2cc(C(Cl)=CC=O)c(=O)oc2c1  middle bracket
5  O=CC=C(Cl)c1cc2ccc(OCc3cccc(Br)c3)cc2oc1=O     low bracket
6      CC(C)Oc1ccc2cc(C(Cl)=CC=O)c(=O)oc2c1    high bracket
7  O=c1[nH]cc(F)c(=O)[nH]1 [5-FU, 5-Fluorouracil, reference compound]  middle bracket
8          COc1ccc2cc(C(Cl)=CC=O)c(=O)oc2c1  middle bracket

Data provenance: paper PMC10076643
